Target sequence: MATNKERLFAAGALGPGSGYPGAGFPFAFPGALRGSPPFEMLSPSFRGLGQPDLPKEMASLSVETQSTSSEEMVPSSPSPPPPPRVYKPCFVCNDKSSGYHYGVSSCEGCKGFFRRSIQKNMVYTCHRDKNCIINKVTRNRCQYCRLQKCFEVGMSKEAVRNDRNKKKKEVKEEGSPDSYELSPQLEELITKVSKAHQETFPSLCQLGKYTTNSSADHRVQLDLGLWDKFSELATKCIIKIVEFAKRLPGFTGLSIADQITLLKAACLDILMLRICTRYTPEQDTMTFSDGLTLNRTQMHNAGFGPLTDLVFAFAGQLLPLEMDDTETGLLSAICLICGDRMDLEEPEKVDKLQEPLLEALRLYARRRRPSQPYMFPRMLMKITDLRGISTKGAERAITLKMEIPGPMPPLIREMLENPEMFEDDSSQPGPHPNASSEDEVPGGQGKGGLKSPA
pKd: −log10 of the molar value.
measured_parameter: pKd

Q. Supply measured pKd of CC(=CC(=O)O)/C=C/C1CC1(C)c1cc2c(cc1C)C(C)(C)CCC2(C)C (stereo unspecified) in your reply.
A. < 6.00
